- Tested on: Puccinia recondita f. Sp. Tritici
- ASSAY_SUMMARY: Puccinia recondita f. sp. tritici / wheat / leaf disc preventative (brown rust)
- Format: in vivo
- TEST_SETTINGS: foliar, 200 ppm in the applied formulation, wheat leaf segments cv. Kanzler, inoculated 1 day after application, vs untreated, 7 to 9 days after application, read-out: disease control
PROPERTY: pest or weed control at 200 ppm

get_value(item= O=C(CCO)Nc1ccc(-c2noc(C(F)(F)F)n2)cc1 , readout=pest or weed control at 200 ppm) returns ≥ 80%

get_value(item= C#CCCC(=O)Nc1ccc(-c2noc(C(F)(F)F)n2)cc1 , readout=pest or weed control at 200 ppm) returns ≥ 80%

get_value(item= N#Cc1cc(F)c(C(=O)Nc2ccc(-c3noc(C(F)(F)F)n3)nc2)c(F)c1 , readout=pest or weed control at 200 ppm) returns ≥ 80%

get_value(item= O=C(Cn1cccn1)Nc1ccc(-c2noc(C(F)(F)F)n2)cc1 , readout=pest or weed control at 200 ppm) returns ≥ 80%

get_value(item= C=CCCC(=O)Nc1ccc(-c2noc(C(F)(F)F)n2)cc1 , readout=pest or weed control at 200 ppm) returns ≥ 80%

get_value(item= O=C(CC(F)(F)F)Nc1ccc(-c2noc(C(F)(F)F)n2)cc1 , readout=pest or weed control at 200 ppm) returns ≥ 80%

get_value(item= CCC(=O)N(C)c1ccc(-c2noc(C(F)(F)F)n2)cc1 , readout=pest or weed control at 200 ppm) returns ≥ 80%

get_value(item= CCCC(C)C(=O)Nc1ccc(-c2noc(C(F)(F)F)n2)cc1 (stereo not drawn) , readout=pest or weed control at 200 ppm) returns ≥ 80%

get_value(item= COc1ccc(CC(=O)Nc2ccc(-c3noc(C(F)(F)F)n3)cc2)cc1 , readout=pest or weed control at 200 ppm) returns ≥ 80%
